Reference source for all entries: ChEMBL document CHEMBL1949589

# test_summary: Terminal half life in Sprague-Dawley rat plasma […]
# Format: ADME, organism-based
# experimental_conditions: read-out: beta t1/2
For each of the compounds below, state its half-life.

query: Which measured half-life value corresponds to O=C(NCC(O)CO)c1nc(NC[C@H](O)CO)c(C(=O)NCC(O)CO)nc1NC[C@H](O)CO (stereo not given in full) ?
result: 19 min

query: Dear colleague, I am looking for the recorded half-life of the following compound: Nc1nc(C(=O)N[C@H](CO)C(=O)O)c(N)nc1C(=O)N[C@H](CO)C(=O)O
result: 29 min

query: Which value of half-life has been reported for Nc1nc(C(=O)N[C@@H](CO)C(=O)O)c(N)nc1C(=O)N[C@@H](CO)C(=O)O in the records?
result: 36 min

query: Given CNC(=O)c1c(I)c(NC(C)=O)c(I)c(C(=O)O)c1I , state its recorded half-life.
result: 32 min

query: Dear colleague, I am looking for the recorded half-life of the following compound: O=C(N[C@H](CO)C(=O)O)c1nc(NC[C@H](O)CO)c(C(=O)N[C@H](CO)C(=O)O)nc1NC[C@H](O)CO
result: 20 min

---

Give measured urinary excretion (% of injected dose) at 6 h for each item. Keep answers brief.
# test_summary: Drug excretion in Sprague-Dawley rat urine after 6 hrs
# Type: ADME
Numbers only; they are read as % ID.

query: Reported urinary excretion (% of injected dose) at 6 h, compound CNC(=O)c1c(I)c(NC(C)=O)c(I)c(C(=O)O)c1I [IOTHALAMIC ACID] : ____
result: 80

query: Dear colleague, I am looking for the recorded urinary excretion (% of injected dose) at 6 h of the following compound: Nc1nc(C(=O)NCC(O)CO)c(N)nc1C(=O)NCC(O)CO (centres undefined)
result: 61

query: Looking for the measured urinary excretion (% of injected dose) at 6 h of NC(=O)c1nc(NC[C@H](O)CO)c(C(N)=O)nc1NC[C@H](O)CO , can you help?
result: 25

query: # get_value(readout='urinary excretion (% of injected dose) at 6 h', item= Nc1nc(C(=O)N[C@H](CC(=O)O)C(=O)O)c(N)nc1C(=O)N[C@H](CC(=O)O)C(=O)O )
result: 61

query: Which urinary excretion (% of injected dose) at 6 h reading was recorded for the compound O=C(NCC(O)CO)c1nc(NC[C@@H](O)CO)c(C(=O)NCC(O)CO)nc1NC[C@@H](O)CO (some centres undefined) ?
result: 87

query: Report urinary excretion (% of injected dose) at 6 h for Nc1nc(C(=O)N[C@@H](CO)C(=O)O)c(N)nc1C(=O)N[C@@H](CO)C(=O)O please.
result: 82

query: Fill in: urinary excretion (% of injected dose) at 6 h of O=C(NCC(O)CO)c1nc(NC[C@H](O)CO)c(C(=O)NCC(O)CO)nc1NC[C@H](O)CO (some centres undefined) is ___
result: 88

query: Requested field: urinary excretion (% of injected dose) at 6 h. Item: Nc1nc(C(=O)N[C@H](CO)C(=O)O)c(N)nc1C(=O)N[C@H](CO)C(=O)O [RELMAPIRAZIN]
result: 90

query: Form field: reported urinary excretion (% of injected dose) at 6 h of O=C(N[C@H](CO)C(=O)O)c1nc(NC[C@H](O)CO)c(C(=O)N[C@H](CO)C(=O)O)nc1NC[C@H](O)CO
result: 85
